- System: LOX IMVI melanoma
- test-method-notes: NCI-60 one-dose screen, 48 h
- recorded-conditions: 10 µM unless noted
Compounds without any hit were thinned out: in the full panel of roughly 83,000, 20% have a hit. Active and inactive are the calls of the source. The calls were made as follows: active = growth percent below 10; inactive = the rest.
Give your call using only these classes: 1 (active), 0 (inactive)

As a guide, the following entries are already answered.
chemical-string: CC1=C(C)C(=O)O[C@@H]([C@](C)(O)[C@]2(O)CC[C@@]3(O)[C@@H]4C[C@H]5O[C@]56CC=CC(=O)[C@]6(C)[C@H]4CC[C@]23C)C1
qualitative-label: 1
--
chemical-string: C[C@]12CCc3sc(Nc4ccc(F)cc4)nc3C1=CC[C@@H]1[C@@H]2CC[C@]2(C)C(=O)CC[C@@H]12
qualitative-label: 0

Asked: Hey, what did the test say about Cc1cc[c-]cc1.Fc1c[c-]c(-c2ccccn2)c(F)c1.N#CCC[PH+](CCC#N)c1ccccc1.[Pt+2] ?
Given back: 1

Asked: GET /call?item= CC/C(Cc1ccccc1)=C(\c1ccc(OCCN2CCCC2)cc1)c1ccc(OC(=O)NCc2ccccc2)cc1 returns the recorded outcome of this test.
Given back: 0

Asked: Per the records of this test, what outcome belongs to CC(=O)Nc1nc2c(s1)C1=CC[C@H]3[C@@H]4CC[C@H](OC(C)=O)[C@@]4(C)CC[C@@H]3[C@@]1(C)CC2 ?
Given back: 0

----------
Exercise: state measured growth for each of the compounds provided.
- Tested on: K-562 leukemia
- test-method-notes: NCI-60 one-dose screen, 48 h (100 = growth as untreated, 0 = no growth, -100 = all killed)
- recorded-conditions: 10 µM unless noted
About 83,000 compounds went through this panel and 20% of them were active in at least one assay; those are over-represented in the sample as a whole.
Numbers only, in %.

// below: answered compounds
compound: CC12CCC3C4CCC(=O)C=C4CCC3C1CC1CC(=O)OC12 (configuration not stated)
growth (%): 95.5
--
compound: CC1=C2[C@H]3OC(=O)[C@@H](C)[C@@H]3CC[C@@]2(C)C=CC1=O
growth (%): 110
--
compound: C[N+]12CCC34C5=CC(=O)C(=O)C=C5[N+]5(C)C(=O)CC6OCC=C(C1)C(CC32)C6C45 (configuration not stated)
growth (%): 97.6

Give me growth for each of these compounds, listed below.
1. N#CCC(=O)c1ccccc1
2. O=NN1CCCCC1
3. O=C(O)c1cc([N+](=O)[O-])cc([N+](=O)[O-])c1
4. CO[C@@H]([CH2][Hg][O]C(=O)c1ccccc1)[C@@H]([CH2][Hg][O]C(=O)c1ccccc1)OC
5. CC(=O)c1cccc(S(=O)(=O)F)c1

Given back:
1. 84.5
2. 121
3. 116
4. 30.1
5. 112

----------
- Tested on: KM12 colon
- test-method-notes: NCI-60 one-dose screen, 48 h
- recorded-conditions: 10 µM unless noted
The panel holds about 83,000 compounds, 20% with a hit somewhere; the sample as a whole holds those more often. Activity calls are given as the source filed them. Rule for the calls: active = growth percent below 10; inactive = the rest.
// allowed return values: 1.0 (active), 0.0 (inactive)

Please review the following examples before continuing.
compound: COc1c(O)cc2c(c1OC)-c1ccc(SC)c(=O)cc1C(NC(C)=O)CC2 (stereo not given)
target-or-system: KM12 colon
qualitative-label: 1.0

compound: Cc1ccc(C(=O)O[C@H](C(=O)O)[C@H](OC(=O)c2ccc(C)cc2)C(=O)O)cc1
target-or-system: KM12 colon
qualitative-label: 0.0

compound: COC[C@H]1OC(=O)c2coc3c2[C@@]1(C)C1=C(C3=O)[C@@H]2CCC(=O)[C@@]2(C)C[C@H]1OC(C)=O
target-or-system: KM12 colon
qualitative-label: 0.0

compound: C/C(=C\c1ccn(-c2ccc(N)c(C(F)(F)F)c2)n1)[C@@H]1C[C@@H]2O[C@]2(C)CCC[C@H](C)[C@H](O)[C@@H](C)C(=O)C(C)(C)[C@@H](O)CC(=O)O1
target-or-system: KM12 colon
qualitative-label: 0.0

compound: C[C@@H]1C/C=C\C(=O)O[C@H](/C=C/C#C/C=C/C(C)(C)[C@@H](O)c2cccc(O)c2Br)[C@@H](C)/C=C/[C@H](C)C[C@H](OC(N)=O)C1
target-or-system: KM12 colon
qualitative-label: 0.0

compound: Cc1nc2ccccc2c(=O)n1-c1ccccc1F
target-or-system: KM12 colon
qualitative-label: 0.0

compound: Cc1cc[c-]cc1.Fc1c[c-]c(-c2ccccn2)c(F)c1.N#CCC[PH+](CCC#N)c1ccccc1.[Pt+2]
target-or-system: KM12 colon
qualitative-label: 0.0

compound: C/C(=C\c1ccn(-c2ccc(N)cc2F)n1)[C@@H]1C[C@@H]2O[C@]2(C)CCC[C@H](C)[C@H](O)[C@@H](C)C(=O)C(C)(C)[C@@H](O)CC(=O)O1
target-or-system: KM12 colon
qualitative-label: 0.0

Asked: Fill in: this test's call for CN(C)c1ccc(C=C2C(=O)NC(=O)NC2=O)cc1 is ___
Given back: 0.0

Asked: Kindly provide the recorded test outcome for the following compound: COc1ccn(C)c(=O)c1C#N
Given back: 0.0

Asked: Name the outcome recorded for C=CC[PH+](c1ccccc1)c1ccccc1.C=CC[PH+](c1ccccc1)c1ccccc1.[Pt+2].[S-]c1ncccn1.[S-]c1ncccn1 in the assay.
Given back: 0.0

Asked: Hi, do you know how CCN1C(=O)CC(=O)N(CC)C1=S came out in this test?
Given back: 0.0

Asked: Check the results log: what was the call for O=C1CCCCC1CN1CCCCC1 (stereo not given) ?
Given back: 0.0

Asked: Called result for O=c1c2ccccc2nc(-c2ccccc2Cl)n1-c1nnc(C(F)(F)F)s1
Given back: 0.0
